Data origin: the nanobody polyreactivity screen of Harvey et al. (2022)

assay_text: yeast display, Sf9 membrane polyspecificity reagent, FACS + sequencing; frameworks hold sequencing errors
measurement_kind: polyreactivity (PSR sort gate)

Sample records with polyreactivity (PSR sort gate):
>  <input_sequence>
QVQLVESGGGLVQAGGSLRLSCAASGFTFYRYAMGWYRQAPGKERELVATISASGGSTYYADSVKGRFTISRDNAKNTVYLQMISLKPEDTAVYYCAVRTIWRFRYDYWGQGTQVTVSS

>  <observed_value>
high polyreactivity

$$$$
>  <input_sequence>
QVQLVESGGGLVQAGGSLRLSCAASGYTFAWYAMGWYRQAPGKERELVAAINNGGSTSYADSVKGRFTISRDNAKNTVYLQMNSLKPEDTAVYYCNADHYGGPHWMDYWGQGTQVTVSS

>  <observed_value>
low polyreactivity

$$$$
>  <input_sequence>
QVQLVESGGGLVQAGGSLRLSCAASGRTFQTNAMGWYRQAPGKERELVAAISWSGGRTYYADSVKGRFTISRDNAKNTVYLQMNSLKPEDTAVYYCAARQWYRYKVRFDYWGQGTLVTVSS

>  <observed_value>
high polyreactivity

$$$$
>  <input_sequence>
QVQLVESGGGLVQAGGSLRLSCAASGSIFSIYAMGWYRQAPGKERELVAAINWIGTSTYYADSVKGRFTISRDNAKNTVYLQMNSLKPEDTAVYYCAAVSRRVSPYLSARDYCGQGTQVTVSS

>  <observed_value>
high polyreactivity

$$$$
>  <input_sequence>
QVQLVESGGGLVQAGGSLRLSCAASGIIFAYYAMGGYRHAPGKERELVAAISRSGGITYYADSVKGRFSISRDNAKNTVYLQMNSLKPEDTAVYDCARFSSRPYDYWGQGTQVTVSS

>  <observed_value>
high polyreactivity

$$$$
>  <input_sequence>
QVQLVDSGGGLVQAGGSLRLSCPASGRTFFNNVMGWSRQAPGKEREWVAAISKSGTRTYYADSVKGRFTISRDNAKNTVYLQMNSLKPEDTAVYYCATGPYLRTSRYYYWGQGTQVTVSS

>  <observed_value>
high polyreactivity

$$$$
>  <input_sequence>
QVQLVESGGGLVQAGGSLRLSCAASGFTFHNYAMGWYRQAPGKERELVAVIRWRGGSTYYADSVKGRFTISRDNAKNTVYLQMNSLKPEDTAVYYCNALFRYSRDYWGQGTQVTVSS

>  <observed_value>
high polyreactivity

$$$$
>  <input_sequence>
QVQLVESGGGLVQAGGSLRLSCAAWSIFYLNAMGLYRQAPGKERELVAAISWGGGSTNYADSVKGRFTISRDNAKNTVYLQMNSLKPEDTAVYYCARTPESLSAREFNYWGQGTEVTVSS

>  <observed_value>
low polyreactivity

$$$$
>  <input_sequence>
QVQLVESGGGLVQAGGSLRLSCAPSGSIFKYNTMGWYRQEPGKERELVATISGGGRTYYADSVKGRFTISRDNAKNTDYLQMNSLKPVDTAVYYCAARKRGNFTYDYWGQGTQVTVSS

>  <observed_value>
high polyreactivity

$$$$
>  <input_sequence>
QVQLVESGGGLVQAGGSLRLSCAASGSTFYGNAMGWYRQAPGKERELVAAISWSGGSTYYADSVKGRFTISRDNAKNTVYLQMNSLKPEDTAVYYCNKDVLLYYVYGHDYWGQGTQVTVSS

>  <observed_value>
low polyreactivity

$$$$

Could you share which polyreactivity (PSR sort gate) value was measured for `QVQLVESGAGLVQAGGSLRLSCAASGLTFLQNALGWSRQAPGNERELVAAINIGTNTYADSVKGRFTISRDNAKNTVYLQMNSLKPEDTAVDYCNTDSAPYYWLSDNYDSWGQGTQVTVSS` ?
low polyreactivity

Could you share which polyreactivity (PSR sort gate) value was measured for `QVQLVESGGGLVQAGGSLRLSCAASGFIFWTNTMGWYRQAPGKERELVAAISRSGGSTYYADSVKGRFTISRDNAKNTVYLQMNSLKPEDTAVYYCAKGYRGYSYGYWGQGTQVTVSS` ?
high polyreactivity

Could you share which polyreactivity (PSR sort gate) value was measured for `QVQLVESGGGLVQAGCSLRLICAASGIIFRRYAMGWYRQAPGKERELVAAISSSGGSTYYADSVKGRFTISRDNAKNTVYLQMNSLKPEDTAVYYCNAVTSVQARPRNYYYWGQGTQVTVSS` ?
high polyreactivity

Could you share which polyreactivity (PSR sort gate) value was measured for `QVQLVESGGGLVQAGGSLRLSCAASGYIFVRYAMGWYRQAPGKERELVAAINSSRGRTYYADSVKGRFTISRDNAKNTVSLQMNSLKPEDTAVYYCGAYGYYRSGYRALEGYWGQGTQVTVSS` ?
high polyreactivity

Could you share which polyreactivity (PSR sort gate) value was measured for `QVQLVESGGGLVQAGGSLRLSCAASGFIFSRNAMGWYRQAPGKERELVATISKRGGSTYYADSVKGRFTISRDNAKNTVYLQMNSLKPEDTAVYYCAATGGILSTYDYWGQGTQVTVSS` ?
high polyreactivity

Could you share which polyreactivity (PSR sort gate) value was measured for `QVHLVESGGGLVQAGGSLRLSCAASGRTFPGYAMGWYRQAPGKERELVATITFSDGSTYYADSVKGRFTISLDNAKNTVYLQMNSLKPEDTAVYYCNARRSYFLRYGVNYWGQGTQVTVSS` ?
low polyreactivity

Could you share which polyreactivity (PSR sort gate) value was measured for `QDQLVESGGGLLQAGGSLRLSCASSGSIFANYVMGWYRQAPGKEREYFAGISRSGGSTYYADSVKGRFKISRDNAKNTVYLQMTSLKPEDTAVYYCNAGAGQRVSGHSFEYWGQGTQVTVSS` ?
high polyreactivity
